System: Human alphaherpesvirus 1
Test: Antiviral activity against herpes simplex virus type 1 (HSV-1) determined in baby hamster kidney cells
Assay type: functional
Conditions: Human alphaherpesvirus 1; read-out: MIC
REPORTED PROPERTY: MIC (µg/mL)

> print(dat)
                                   molecule  measured
1  CS/C=C/c1cn([C@H]2C[C@H](O)[C@@H](CO)O2)c(=O)[nH]c1=O       0.5
2  C/C=C\c1cn([C@H]2C[C@H](O)[C@@H](CO)O2)c(=O)[nH]c1=O       100
3  C/C=C/c1cn([C@H]2C[C@H](O)[C@@H](CO)O2)c(=O)nc1N        50
4  COC(=O)/C=C/c1cn([C@H]2C[C@H](O)[C@@H](CO)O2)c(=O)[nH]c1=O        10

A. C/C=C(\C)c1cn([C@H]2C[C@H](O)[C@@H](CO)O2)c(=O)[nH]c1=O
B. C/C=C/c1cn([C@H]2C[C@H](O)[C@@H](CO)O2)c(=O)[nH]c1=S
C. CCC#Cc1cn([C@H]2C[C@H](O)[C@@H](CO)O2)c(=O)[nH]c1=O
D. O=c1[nH]c(=O)n([C@H]2C[C@H](O)[C@@H](CO)O2)cc1C=C(Br)Br
E. CC/C=C/c1cn([C@H]2C[C@H](O)[C@@H](CO)O2)c(=O)[nH]c1=O
Sort these compounds on MIC so the largest reading comes first. Answer by writing out the labels in the requested order.
B, A, C, E, D
(B: 100 µg/mL, A: 50 µg/mL, C: 10 µg/mL, E: 0.5 µg/mL, D: 0.1 µg/mL)

a. C/C=C/c1cn([C@H]2C[C@H](O)[C@@H](CO)O2)c(=O)[nH]c1=O
b. CC#Cc1cn([C@H]2C[C@H](O)[C@@H](CO)O2)c(=O)[nH]c1=O
Compare a and b and name the one whose reported MIC is smaller. Use the label to indicate which entry you chose.
a

---

System: Human alphaherpesvirus 1
Test: Antiviral activity against herpes simplex virus type 1 (HSV-1) determined in baby hamster kidney cells
Assay type: functional
Settings: Human alphaherpesvirus 1; read-out: MIC
REPORTED PROPERTY: MIC (mg/L)

> print(dat)
                                   molecule  reported.property  output.unit  measured
1  C=CCc1cn([C@H]2C[C@H](O)[C@@H](CO)O2)c(=O)[nH]c1=O                MIC         mg/L       100
2  CCCCc1cn([C@H]2C[C@H](O)[C@@H](CO)O2)c(=O)[nH]c1=O                MIC         mg/L        10
3  C=C(Cl)Cc1cn([C@H]2C[C@H](O)[C@@H](CO)O2)c(=O)[nH]c1=O                MIC         mg/L        50
4  C/C(Br)=C/c1cn([C@H]2C[C@H](O)[C@@H](CO)O2)c(=O)[nH]c1=O.C/C(Br)=C\c1cn([C@H]2C[C@H](O)[C@@H](CO)O2)c(=O)[nH]c1=O                MIC         mg/L         1

A. C/C=C/Cc1cn([C@H]2C[C@H](O)[C@@H](CO)O2)c(=O)[nH]c1=O.C/C=C\Cc1cn([C@H]2C[C@H](O)[C@@H](CO)O2)c(=O)[nH]c1=O
B. C/C(=C\Br)c1cn([C@H]2C[C@H](O)[C@@H](CO)O2)c(=O)[nH]c1=O
Hey, which is lower on measured MIC, A or B ? Pick one and reply with its label.
B
